- Target: CDK1/CyclinB (Homo sapiens (Human))
- Sequence (P06493 whole entry): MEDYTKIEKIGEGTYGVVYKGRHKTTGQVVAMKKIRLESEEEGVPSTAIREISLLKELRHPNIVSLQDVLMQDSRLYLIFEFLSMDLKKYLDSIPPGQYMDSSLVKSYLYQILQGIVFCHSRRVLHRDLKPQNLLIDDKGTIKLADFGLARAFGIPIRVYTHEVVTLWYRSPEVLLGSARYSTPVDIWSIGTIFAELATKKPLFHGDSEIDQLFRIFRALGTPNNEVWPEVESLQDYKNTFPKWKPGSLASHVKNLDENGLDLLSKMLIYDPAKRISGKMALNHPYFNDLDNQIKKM
- Sequence (P14635 whole entry partner): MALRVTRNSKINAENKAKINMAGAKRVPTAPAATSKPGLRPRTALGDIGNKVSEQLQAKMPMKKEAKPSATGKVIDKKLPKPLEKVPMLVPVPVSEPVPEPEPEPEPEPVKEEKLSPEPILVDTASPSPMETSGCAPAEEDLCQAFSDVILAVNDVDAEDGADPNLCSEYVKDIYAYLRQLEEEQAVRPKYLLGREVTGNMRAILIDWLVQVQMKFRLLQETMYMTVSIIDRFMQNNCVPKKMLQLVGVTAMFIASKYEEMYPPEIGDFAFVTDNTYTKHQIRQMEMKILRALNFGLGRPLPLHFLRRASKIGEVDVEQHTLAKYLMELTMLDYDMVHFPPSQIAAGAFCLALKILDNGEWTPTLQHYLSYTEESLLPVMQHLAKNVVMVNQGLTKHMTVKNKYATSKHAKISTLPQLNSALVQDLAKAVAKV
- Procedure Details: CDK1/CyclinB kinase inhibitory activity (Caliper mobility shift)
- Run Parameters: read-out: CDK1/Cyclin B1 IC50
Parameter Measured: IC50

1) NS(=O)(=O)c1ccc(Nc2ncc(C(F)(F)F)c(O[C@H]3[C@@H]4CC[C@@H](C4)[C@H]3O)n2)cc1 (single isomer, unassigned) [Example 113b] :: 10 to 100 nM
2) [2H]C([2H])([2H])NS(=O)(=O)c1ccc(Nc2ncc(C(F)(F)F)c(O[C@H]3CCCOC[C@H]3O)n2)cc1 (single isomer, unassigned) [Example 103a] :: 10 to 100 nM
3) CS(=O)(=O)N1CCC(Nc2ncc(C(F)(F)F)c(OC3CCCCCC3O)n2)CC1 (single isomer, unassigned) [Example 121b] :: 100 to 1000 nM
4) NS(=O)(=O)c1ccc(Nc2ncc(F)c(N3CCCCC3)n2)cc1 [Example 86] :: 10 to 100 nM

IC50 of CC(C)NS(=O)(=O)c1ccc(Nc2ncc(C3CC3)c(O[C@@H]3CCC[C@@H]3O)n2)cc1 (single isomer, unassigned) [Example 134b] on CDK1/CyclinB (Homo sapiens (Human))?
100 to 1000 nM

IC50 of Cn1cc(S(=O)(=O)N2CCC(Nc3ncc(Br)c(OC4CCCCC4O)n3)CC2)cn1 (single isomer, unassigned) [Example 144a] on CDK1/CyclinB (Homo sapiens (Human))?
100 to 1000 nM
